Tested on: red blood cells
Experiment: Red Blood Cell (RBC) Lysis Assay (lysis20)
Format: cell-based, sheep
Conditions: concentration inducing 20% RBC lysis; sheep blood, 1 hour, 37 °C
Record form. Attribute: Lysis20. Fill in for each entry.

Please review the entries below; each comes with its answer.
{"compound": "CCCCCCCCCCCCCCCC[P+](CC)(CC)CC[P+](CC)(CC)CCCCCCCCCCCCCCCC [^EtP2P-16,16]", "Lysis20": "16 µM"}
{"compound": "CCCCCCCC[P+](CC[P+](CCCCCCCC)(C1CCCCC1)C1CCCCC1)(C1CCCCC1)C1CCCCC1 [^CyP2P-8,8]", "Lysis20": "125 µM"}
{"compound": "CCCCCCCC[P+](CC)(CC)CC[P+](CC)(CC)CCCCCCCC [^EtP2P-8,8]", "Lysis20": "250 µM"}

With those in mind, consider the next compound.
Note down Lysis20 recorded for CCCCCCCC[P+](C)(C)CC[P+](C)(C)CCCCCCCC [^MeP2P-8,8]
250 µM

====

A set of compounds tested on A. baumannii, with measured MIC:
Numbers only, in µM.

{"compound": "CCCCCCCCCCCCCCCC[P+](CC[P+](CCCCCCCCCCCCCCCC)(C1CCCCC1)C1CCCCC1)(C1CCCCC1)C1CCCCC1", "MIC [µM]": 125}

Field: MIC. Fill in for each record below.
1. CCCCCCCCCC[P+](CCCCCC[P+](CCCCCCCCCC)(c1ccccc1)c1ccccc1)(c1ccccc1)c1ccccc1 [^PhP6P-10,10, reference compound]
2. CCCCCCCCCCCCCC[P+](CC)(CC)CC[P+](CC)(CC)CCCCCCCCCCCCCC
3. CCCCCCCCCCC[P+](CC)(CC)CC[P+](CC)(CC)CCCCCCCCCCC
4. CCCCCCCCCCCCCCCC[P+](CC)(CC)CC[P+](CC)(CC)CCCCCCCCCCCCCCCC

4
32
8
260

Note down MIC recorded for CCCCCCCCCC[P+](CC)(CC)CC[P+](CC)(CC)CCCCCCCCCC
32

====

Record form. Attribute: log10 of Lysis20. Fill in for each entry.
Test system: red blood cells
Assay: Red Blood Cell (RBC) Lysis Assay (lysis20)
Assay type: cell-based, sheep
Conditions: concentration inducing 20% RBC lysis; sheep blood, 1 hour, 37 °C
Heads up: the numbers are on a log10 scale; they represent Lysis20 in µM.

Please review the entries below; each comes with its answer.
{"compound": "CCCCCCCCCCCC[P+](CC[P+](CCCCCCCCCCCC)(C1CCCCC1)C1CCCCC1)(C1CCCCC1)C1CCCCC1 [^CyP2P-12,12]", "reported-measurement": 1.20}
{"compound": "CCCCCCCCC[P+](C)(C)CC[P+](C)(C)CCCCCCCCC [^MeP2P-9,9]", "reported-measurement": 2.40}

Field: log10 of Lysis20. Fill in for each record below.
1. CCCCCCCCC[P+](CC[P+](CCCCCCCCC)(C1CCCCC1)C1CCCCC1)(C1CCCCC1)C1CCCCC1 [^CyP2P-9,9]
2. CCCCCCCCCC[P+](C)(C)CC[P+](C)(C)CCCCCCCCCC [^MeP2P-10,10]
3. CCCCCCCCCCC[P+](CC[P+](CCCCCCCCCCC)(C1CCCCC1)C1CCCCC1)(C1CCCCC1)C1CCCCC1 [^CyP2P-11,11]
4. CCCCCCCCCCCCCCCC[P+](CC[P+](CCCCCCCCCCCCCCCC)(C1CCCCC1)C1CCCCC1)(C1CCCCC1)C1CCCCC1 [^CyP2P-16,16]
5. CCCCCCCCCC[P+](CC[P+](CCCCCCCCCC)(c1ccccc1)c1ccccc1)(c1ccccc1)c1ccccc1 [^PhP2P-10,10, reference compound]

1. 2.10
2. 1.80
3. 0.90
4. 1.51
5. 1.20
